system: HT22 cells; assay: In vitro neuroprotective activity against glutamate-induced cell death (MTS cell viability); assay type: cell-based, mouse; conditions: HT22 cells, 10 mM glutamate, 24 hrs, MTS; concentration producing 50% protection; read-out: Protection PC50
recorded.endpoint: EC50 (nM)
A number alone suffices; assume nM.

Query block: Recall and state the measured EC50 for CC1=CC(=O)c2ccccc2C1=O [VK3, menadione, reference compound] .
Result block: 797

###

tested on: HT22 cells; assay: In vitro neuroprotective activity against glutamate-induced cell death (MTS cell viability); type: cell-based, mouse; conditions: Mus musculus, HT-22; HT22 cells, 10 mM glutamate, 24 hrs, MTS; concentration producing 50% protection; read-out: Protection PC50
For each record, write down the corresponding EC50.
Express your answer in nM, writing the number without its unit.

Query block: Provide EC50, tested on HT22 cells, for O=C1C=C(NCc2ccc(Cl)c(Cl)c2)C(=O)c2ccccc21 [Compound 2v] .
Result block: 46

Query block: // output EC50; input CCC(=O)NC1=CC(=O)c2ccccc2C1=O [Compound 3b] ; system HT22 cells
Result block: 760

Query block: Using HT22 cells as the test system, report measured EC50 of CCNC1=CC(=O)c2ccccc2C1=O [Compound 2b, 2-(ethylamino)naphthalene-1,4-dione] .
Result block: 761

Query block: Send back HT22 cells EC50 of O=C1C=C(NCc2cccc(Cl)c2)C(=O)c2ccccc21 [Compound 2q] only.
Result block: 31

Query block: Identify measured EC50 obtained with HT22 cells for CC(C)NC1=CC(=O)c2ccccc2C1=O [Compound 2d, 2-(isopropylamino)naphthalene-1,4-dione] .
Result block: 1700

Query block: Please report EC50 with HT22 cells for item O=C1C=C(NCc2ccccn2)C(=O)c2ccccc21 [Compound 2o] .
Result block: 933

Query block: Give HT22 cells EC50 for the following compound: CC(=O)NC1=CC(=O)c2ccccc2C1=O [Compound 3a]
Result block: 616

Query block: Report value: EC50, system: HT22 cells, compound: Cc1ccc(C(=O)NC2=CC(=O)c3ccccc3C2=O)cc1 [Compound 3h]
Result block: 382
